Readings of FRatio for the listed compounds
# Tested System: GST-Bfl-1 (Homo sapiens, UniProt Q16548)
# Construct: lacking their C-terminal transmembrane domains (about the last 20 amino acids) (“ΔTM”); made in house; host or cells: XL-1 Blue E. coli, pGEX 4T-1
# Sequence (Q16548 1-155 limits assumed): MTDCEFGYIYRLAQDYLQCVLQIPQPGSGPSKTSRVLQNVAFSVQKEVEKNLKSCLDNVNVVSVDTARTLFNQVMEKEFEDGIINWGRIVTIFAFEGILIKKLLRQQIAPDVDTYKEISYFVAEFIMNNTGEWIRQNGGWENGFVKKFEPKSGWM
# Protocol: Bfl-1/FITC-Bid BH3 competitive fluorescence polarization assay
# Assay type: binding
# Condition Context: primary HTS hits, MLSCN library (PubChem SIDs), Table 5B
Metric: FRatio

>>> reported_value("Cc1ccc(S(=O)(=O)Cc2ccc(C(=O)N3CCc4ccccc4C3)o2)cc1 [Compound 14733336]")
0.93
>>> reported_value("COc1ccc(C(N)CCc2ccc(C)o2)cc1 (stereo not drawn) [Compound 4244526]")
0.84
>>> reported_value("CC1=C(N2C(=O)c3ccc4c5c(ccc(c35)C2=O)CC4)C(C)N(c2ccccc2)N1C (stereo not drawn) [Compound 7978392]")
0.39

====

# Tested System: GST-Bcl-B (Homo sapiens, UniProt Q9HD36)
# Protocol: Bcl-B/FITC-TR3-r8 fluorescence polarization competition (displacement) assay, HTS and dose-response
# Condition Context: read-out: Result Value (Result Type % Inhibition), BCL-b/TR3
Label scheme for inhibition at 0.02 µM: lower than 90% is 0.0, 90% and above is 1.0.

>>> classification("Nc1ccc(-c2ccc(Nc3cc(S(=O)(=O)O)c(N)c4c3C(=O)c3ccccc3C4=O)cc2)c(S(=O)(=O)O)c1 [Compound 125910]")
1.0
>>> classification("N=C(N)NCCCS(=O)(=O)Nc1ccc(Nc2c3ccccc3nc3cc([N+](=O)[O-])ccc23)cc1 [Compound 177365]")
0.0
>>> classification("CCN(CCO)CCNc1ccc(C)c2sc3ccccc3c(=O)c12 [Compound 20534]")
0.0
>>> classification("O=[N+]([O-])c1ccc(S(=O)(=O)Cc2ccccc2)c2nonc12 [Compound 228148]")
0.0
>>> classification("O=[N+]([O-])c1ccc2c(/N=N/c3ccc4ccccc4c3O)c(O)cc(S(=O)(=O)O)c2c1 [Compound 7223]")
1.0
>>> classification("O=S(=O)(O)c1cc(/N=N/c2cccc3ccccc23)c(O)c2ncccc12 [Compound 148354]")
1.0
>>> classification("Cc1cc(C(=C2C=CC(=N)C=C2)c2ccc(N)cc2)ccc1N [Compound 93739]")
0.0
>>> classification("Oc1c(C(O)(c2ccccc2)c2ccc3ccccc3c2O)ccc2ccccc12 [Compound 13984]")
0.0
>>> classification("CC(=O)O.CCN(CC)CC[n+]1ccc2c(C)c3[nH]c4ccc(O)cc4c3c(C)c2c1 [Compound 311152]")
1.0
>>> classification("CN(C)C1C(O)=C(C(N)=O)C(=O)C2(O)C(O)=C3C(=O)c4c(O)cccc4C(C)(O)C3CC12.CS(=O)(=O)O (stereo not drawn) [Compound 69343]")
1.0
>>> classification("[O-][n+]1c2c([n+]([O-])c3ccccc31)-c1cccc3cccc-2c13 [Compound 60309]")
0.0
>>> classification("Oc1cc(O)c2c(c1)OC(c1ccc(O)c(O)c1)C(O)C2c1c(O)cc(O)c2c1OC(c1ccc(O)c(O)c1)C(O)C2 (stereo not drawn) [Compound 143099]")
0.0
>>> classification("CN(C)CCCNc1cc(O)c2c(c1O)C(=O)c1ccccc1C2=O [Compound 339585]")
1.0
>>> classification("O=S(=O)(O)c1ccc2c(/N=N/c3cccc4ccccc34)c(O)c(S(=O)(=O)O)cc2c1 [Compound 45583]")
0.0
>>> classification("Oc1cc(O)c2c(c1)OC(c1ccc(O)c(O)c1)C(OC1(c3cc(O)c(O)c(O)c3)Oc3cc(O)cc(O)c3C(O)C1O)C2 (stereo not drawn) [Compound 143101]")
0.0
>>> classification("CNc1ccc(Nc2ccc(S(=O)(=O)O)cc2)c2c1C(=O)c1ccccc1C2=O [Compound 128437]")
1.0
>>> classification("N=C1C(O)C2(I)c3ccccc3N3C(=N)C(O)C4c5ccccc5N1C4C32 (stereo not drawn) [Compound 118176]")
0.0
>>> classification("O=S(=O)(O)c1ccc(NN(c2c(O)ccc3ccccc23)S(=O)(=O)O)cc1 [Compound 9600]")
0.0
>>> classification("CCN(CC)Cc1cc(/N=N/c2c(O)ccc3c(/N=N/c4ccc(O)c(CN(CC)CC)c4)c(O)ccc23)ccc1O [Compound 359463]")
1.0
>>> classification("COc1cccc2c1C(=N)c1c(O)c3c(c(O)c1C2=O)C[C@@](O)(C(C)=O)C[C@@H]3OC1CC(N)C(O)C(C)O1 (stereo partly drawn) [Compound 254681]")
1.0
>>> classification("N=C(N)c1ccc(/N=N/c2c(O)ccc3c2[nH]c2ccccc23)cc1 [Compound 357777]")
1.0
>>> classification("O=S(=O)(O)c1cc(/N=[N+](\\[O-])c2cc(S(=O)(=O)O)c3ccccc3c2)cc2ccccc12 [Compound 37031]")
0.0
>>> classification("N=C1C=CC(=C(c2ccc(N)cc2)c2ccc(N)cc2)C=C1 [Compound 10460]")
0.0
>>> classification("O=C(O)/C=C/c1c2ccc(=O)c(O)c-2oc2c(O)c(O)ccc12 [Compound 119911]")
1.0
>>> classification("Nc1nc(N)c(/N=N/c2ccc(C(=O)O)c(O)c2)c(N)n1 [Compound 117285]")
0.0
>>> classification("CCN1C=C/C(=C\\C=C\\c2cc[n+](CC)c3ccccc23)C2C=CC=CC21 (stereo not drawn) [Compound 34391]")
1.0
>>> classification("O=C1c2ccccc2C(=O)c2c(O)c(O)cc(O)c21 [Compound 10447]")
1.0

====

# Tested System: GST-Bfl-1 (Homo sapiens)
# Construct: lacking their C-terminal transmembrane domains (about the last 20 amino acids) (“ΔTM”); made in house; host or cells: XL-1 Blue E. coli, pGEX 4T-1
# Sequence (Q16548 1-155 limits assumed): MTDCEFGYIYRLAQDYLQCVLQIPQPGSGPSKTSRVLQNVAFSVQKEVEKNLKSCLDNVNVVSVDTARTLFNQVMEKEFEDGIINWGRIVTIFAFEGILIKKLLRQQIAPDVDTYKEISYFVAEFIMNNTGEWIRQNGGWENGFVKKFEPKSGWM
# Protocol: Bfl-1/FITC-Bid BH3 competitive fluorescence polarization assay
# Type: binding
# Condition Context: primary HTS hits, MLSCN library (PubChem SIDs), Table 5B
Metric: FRatio

>>> reported_value("C=CCN1C(=O)/C(=C2/C(=O)N(CC(=O)O)c3ccccc32)S/C1=N\\c1nccs1 [Compound 17401584]")
0.83
>>> reported_value("Cc1c(NC(=O)c2cc3nc(-c4ccccc4)cc(C)n3n2)c(=O)n(-c2ccccc2)n1C [Compound 844334]")
0.88
>>> reported_value("CC(=O)Nc1ccc(S(=O)(=O)/N=C2/C(=O)c3ccccc3C(O)=C2N2CCN(Cc3ccccc3)CC2)cc1 [Compound 14742166]")
0.73

====

# Tested System: GST-Bcl-B (Homo sapiens)
# Sequence (Q9HD36 1-182 limits assumed): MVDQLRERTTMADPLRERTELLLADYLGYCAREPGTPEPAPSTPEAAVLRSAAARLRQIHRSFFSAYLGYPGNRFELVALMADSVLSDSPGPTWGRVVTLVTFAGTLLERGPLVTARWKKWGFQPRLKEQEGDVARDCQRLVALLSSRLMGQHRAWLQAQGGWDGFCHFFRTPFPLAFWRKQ
# Protocol: biochemical
pIC50: −log10 of the molar value.
Please note: Condition met applies when pIC50 is 5 or greater, and Condition not met applies otherwise.

>>> classification("O=C(O)C1Nc2ccc3ccccc3c2C2C=CCC12 (stereo not drawn)")
"Condition met"
>>> classification("Cc1c(Cl)ccc2c1NC(C(=O)O)C1CC=CC21 (stereo not drawn)")
"Condition met"
>>> classification("Cc1ccc(-c2cc(C(=O)O)c3cc(Br)ccc3n2)o1")
"Condition not met"
>>> classification("Cc1ccc(C)n1-c1cc(C(=O)O)cc(C(=O)O)c1")
"Condition met"
>>> classification("O=C1NN(c2ccc(F)c(Cl)c2)C(=O)/C1=C\\c1ccco1")
"Condition not met"

====

# Tested System: GST-Bfl-1 (Homo sapiens, UniProt Q16548)
# Construct: lacking their C-terminal transmembrane domains (about the last 20 amino acids) (“ΔTM”); made in house; host or cells: XL-1 Blue E. coli, pGEX 4T-1
# Protocol: Bfl-1/FITC-Bid BH3 competitive fluorescence polarization assay
# Type: binding
# Condition Context: primary HTS hits, MLSCN library (PubChem SIDs), Table 5B
Use 1 when the recorded % Activity is no lower than 70%; use -1 when it is lower.

>>> classification("CCC1=[N+](C)CCn2c(C)ccc21 [Compound 14734567]")
-1
>>> classification("COc1ccc(-c2nc3n(n2)C(c2cccnc2)C(C(N)=O)=C(C)N3)cc1 (centres unmarked) [Compound 4250160]")
1
>>> classification("CN1CCC2=C(C1)SC1C2C(NCc2ccco2)=Nc2nnnn21 (centres unmarked) [Compound 864825]")
1
>>> classification("O=c1nc2s/c(=C\\c3ccco3)c(=O)n2nc1Cc1ccc(F)cc1 [Compound 863170]")
-1
>>> classification("Cc1cc(N)ccc1N1CCCC1 [Compound 14744983]")
1
>>> classification("CC1=C(N2C(=O)c3ccc4c5c(ccc(c35)C2=O)CC4)C(C)N(c2ccccc2)N1C (centres unmarked) [Compound 7978392]")
1
>>> classification("CCc1ccccc1NC(=O)c1cc2ncc(Br)cn2n1 [Compound 14733824]")
1
>>> classification("Cc1cccn2c(=O)c3cc(C(=O)NCC4CCCO4)c(=N)n(Cc4cccnc4)c3nc12 (centres unmarked) [Compound 849581]")
-1
>>> classification("Cc1ccc(NC(=O)Nc2cccs2)c(Cl)c1 [Compound 14734202]")
-1
>>> classification("CCCCNC(=O)COC(=O)c1ccc(Cl)c(S(=O)(=O)N2CCCC2)c1 [Compound 16952426]")
-1
>>> classification("Cn1c(C(C#N)C2=C(Cl)C(=O)N(c3ccccc3)C2=O)nc2ccccc21 (centres unmarked) [Compound 3716185]")
1
>>> classification("COCCN1CCN2C(=NC3CC(NC(=O)NC4CCCCC4)CCC32)C1 (centres unmarked) [Compound 865452]")
1
>>> classification("Cn1c(SCC(=O)Nc2ccc3nc(SCC(=O)N4CCCC4)sc3c2)nnc1-c1ccc(N)cc1 [Compound 17386645]")
-1
>>> classification("Cc1ccccc1NC(=O)CSc1nnc(-c2ccco2)c(-c2ccco2)n1 [Compound 14742395]")
-1
>>> classification("Brc1ccc2ncnc(Nc3ccc(N4CCOCC4)cc3)c2c1 [Compound 7975247]")
1
>>> classification("O=S(=O)(c1ccccc1)N(CC(O)CN1CCCCC1)c1ccccc1 (centres unmarked) [Compound 859970]")
-1
>>> classification("N#Cc1ccccc1CN1C(=O)S/C(=C/c2cccn2-c2ccc(C(=O)O)cc2)C1=O [Compound 17385953]")
-1
>>> classification("O=C(CCCCCn1c(=S)[nH]c2ccccc2c1=O)NCc1ccc2c(c1)OCO2 [Compound 17402018]")
-1
>>> classification("COc1cc(CNCCc2c[nH]c3ccccc23)ccc1OCc1ccc(F)cc1 [Compound 17386700]")
1
>>> classification("O=C(NCCCN1CCN(Cc2ccccc2)CC1)C1CCN(c2nnc(-n3cccc3)s2)CC1 [Compound 4250401]")
-1
>>> classification("Cc1cc[n+]2c3c(cccc13)CCC2 [Compound 14748512]")
1
>>> classification("Cc1ccc(S(=O)(=O)Cc2ccc(C(=O)N3CCc4ccccc4C3)o2)cc1 [Compound 14733336]")
-1
